From: paper PMC5526870

subject.of.test: human A2AAR (Homo sapiens, UniProt P29274)
Construct: expressed in transfected cells; host or cells: CHO cells
Sequence (P29274 whole entry): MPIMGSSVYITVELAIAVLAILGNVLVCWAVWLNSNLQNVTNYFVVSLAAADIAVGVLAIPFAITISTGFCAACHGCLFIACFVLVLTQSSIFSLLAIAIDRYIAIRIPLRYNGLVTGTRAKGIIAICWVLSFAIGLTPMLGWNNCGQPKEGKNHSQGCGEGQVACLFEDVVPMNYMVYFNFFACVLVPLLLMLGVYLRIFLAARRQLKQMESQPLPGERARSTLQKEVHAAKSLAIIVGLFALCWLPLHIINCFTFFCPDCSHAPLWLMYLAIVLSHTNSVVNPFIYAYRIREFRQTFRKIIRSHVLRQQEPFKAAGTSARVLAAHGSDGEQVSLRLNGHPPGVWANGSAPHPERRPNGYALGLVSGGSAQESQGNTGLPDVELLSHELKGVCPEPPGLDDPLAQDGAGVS
assay.name: Radioligand binding assay at the A2AAR for adenine derivatives 1-23 (displacement of [3H]NECA, CHO cells)
test.parameters: compound retested in a radioligand binding assay at the A2AAR, this work
experimental.readout: Ki (nM)
Reply with just the number (in nM).

Looking for the measured Ki of `CCn1c(OC(C)C)nc2c(N)ncnc21` , can you help?
95

###

subject.of.test: human A2AAR (Homo sapiens, UniProt P29274)
Construct: expressed in transfected cells; host or cells: CHO cells
assay.name: Radioligand binding assay, antagonist [3H]ZM241385 (1.0 nM), membranes of CHO or HEK293 cells, compounds 25-36
test.parameters: read-out: % inhibition at 300 µM A2A (displacement of radioligand binding); 300 µM; [3H]ZM241385; mean ± standard error, n=3
Description: Radioligand binding assays for compounds 25–36 were performed as previously described[61] using membrane preparations from Chinese hamster ovary (CHO) or human embryonic kidney (HEK)293 cells stably expressing the human A1, A2A or A3AR. […] Binding parameters were calculated using Prism 6 software (GraphPAD, San Diego, CA, USA). […] Data were expressed as mean ± standard error. […] Each Ki value was determined from at least three independent experiments. […]
// reported inhibition at 300 µM per item
Reply with just the number (in %).

Looking for the measured inhibition at 300 µM of Nc1ncnc2ncnn12 [Compound 25] , can you help?
34

Looking for the measured inhibition at 300 µM of Nc1cccn2ncnc12 [Compound 28, [1,2,4]triazolo[1,5-a]pyridin-8-amine] , can you help?
17

Looking for the measured inhibition at 300 µM of Cc1nc2c(N)cccn2n1 [Compound 29] , can you help?
31

Looking for the measured inhibition at 300 µM of CCc1nc2c(N)cccn2n1 [Compound 30] , can you help?
49
